Cited source for all entries: patent US11926596B2

# target entity: recombinant ROCK2 (amino acids 1-552) (Homo sapiens)
# Construct: ROCK2 (amino acids 1-552) proteins were purchased from ThermoFisher Scientific; purchased ThermoFisher Scientific
# Sequence (O75116 1-552): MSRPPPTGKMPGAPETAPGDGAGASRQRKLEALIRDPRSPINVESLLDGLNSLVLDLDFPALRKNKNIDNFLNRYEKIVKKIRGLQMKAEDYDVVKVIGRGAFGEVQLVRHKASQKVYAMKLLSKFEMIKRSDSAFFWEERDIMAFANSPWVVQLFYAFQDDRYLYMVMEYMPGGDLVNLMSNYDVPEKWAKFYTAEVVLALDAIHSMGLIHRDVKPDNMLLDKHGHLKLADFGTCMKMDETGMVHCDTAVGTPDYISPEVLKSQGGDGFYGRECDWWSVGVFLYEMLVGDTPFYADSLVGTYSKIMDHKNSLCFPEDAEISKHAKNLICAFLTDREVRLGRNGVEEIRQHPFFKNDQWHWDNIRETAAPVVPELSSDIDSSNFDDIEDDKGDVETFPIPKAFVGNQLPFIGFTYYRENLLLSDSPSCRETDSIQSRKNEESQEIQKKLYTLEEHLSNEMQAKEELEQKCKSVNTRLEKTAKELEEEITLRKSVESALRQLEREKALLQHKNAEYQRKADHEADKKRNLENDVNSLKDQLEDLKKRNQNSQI
# experimental details: Z'-lyte kinase assay, ROCK2
# Format: biochemical
# condition set: 3 μM; read-out: ROCK2 % inh
measured quantity: inhibition at 3 µM (%)
The reply should be a number in %, with the unit left off.

For CNC(C(=O)Nc1ccc2[nH]ncc2c1)c1ccccc1 (stereo not shown) the compound record lists inhibition at 3 µM as 98.7

So, COc1ccc(C(NC(C)C)C(=O)Nc2ccc3[nH]ncc3c2)cc1 (stereo not shown) ? Its inhibition at 3 µM was 98.8

Data point: CCNC(C(=O)Nc1ccc2[nH]ncc2c1)c1ccc(F)cc1 (stereo not shown) ; inhibition at 3 µM = 95.3

Data point: CNC(C(=O)Nc1ccc2[nH]ncc2c1)c1ccc(OC)cc1 (stereo not shown) ; inhibition at 3 µM = 98.8

* * *

# target entity: recombinant ROCK1 (amino acids 1-535) (Homo sapiens, UniProt Q13464)
# Construct: recombinant ROCK1 (amino acids 1-535) and ROCK2; purchased ThermoFisher Scientific
# Sequence (Q13464 1-535): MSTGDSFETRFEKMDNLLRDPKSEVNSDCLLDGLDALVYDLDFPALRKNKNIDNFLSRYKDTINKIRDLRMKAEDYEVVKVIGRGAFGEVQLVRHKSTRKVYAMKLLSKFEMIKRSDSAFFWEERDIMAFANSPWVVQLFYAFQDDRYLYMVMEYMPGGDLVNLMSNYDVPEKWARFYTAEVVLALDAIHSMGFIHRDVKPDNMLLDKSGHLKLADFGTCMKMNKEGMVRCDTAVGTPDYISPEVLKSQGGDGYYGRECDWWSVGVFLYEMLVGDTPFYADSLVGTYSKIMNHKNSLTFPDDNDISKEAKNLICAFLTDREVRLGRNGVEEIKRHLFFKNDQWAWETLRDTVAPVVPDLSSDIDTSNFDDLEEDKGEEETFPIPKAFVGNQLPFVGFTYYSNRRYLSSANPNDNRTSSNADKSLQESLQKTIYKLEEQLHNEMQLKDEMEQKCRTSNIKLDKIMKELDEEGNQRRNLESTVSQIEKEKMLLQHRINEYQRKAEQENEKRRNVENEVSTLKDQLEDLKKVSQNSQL
# experimental details: Z'-lyte kinase assay, ROCK1
# Type: biochemical
# condition set: 3 μM; read-out: ROCK1 % inh
measured quantity: inhibition at 3 µM (%)
Field format: number, assumed %, no unit text.

Reported inhibition at 3 µM of COc1ccc(C(NC(C)(C)C)C(=O)Nc2ccc3[nH]ncc3c2)cc1 (stereo not drawn) [Example 36] : 99

inhibition at 3 µM recorded for this compound, CC(C)NC(C(=O)Nc1ccc2[nH]ncc2c1)c1ccc(F)cc1 (stereo not drawn) [Example 20] , is 18.4

Measured inhibition at 3 µM, CNC(C(=O)Nc1ccc2[nH]ncc2c1)c1ccc(OC)cc1 (stereo not drawn) [Example 24] : 99

* * *

# target entity: recombinant ROCK1 (amino acids 1-535) (Homo sapiens)
# Construct: recombinant ROCK1 (amino acids 1-535) and ROCK2
# experimental details: Z'-lyte kinase assay, ROCK1
measured quantity: pIC50
# log scale: pIC50 equals minus log10 of the concentration in mol/L

pIC50 measured on COc1ccc(C(NC(C)C)C(=O)Nc2ccc3[nH]ncc3c2)cc1 (stereo not shown) = 7.97

Record CNC(C(=O)Nc1ccc2[nH]ncc2c1)c1ccc(Oc2cccc(OC)c2)cc1 (stereo not shown) , field pIC50: 7.89

pIC50 for CCNC(C(=O)Nc1ccc2[nH]ncc2c1)c1ccc(C)cc1 (stereo not shown) is 7.80

Sure, the documented pIC50 for CNC(C(=O)Nc1ccc2[nH]ncc2c1)c1ccccc1Cl (stereo not shown) is 8.08
